target: NR1A/2A NMDA receptor (Rattus norvegicus, UniProt P35439+Q00959); assay: Xenopus oocyte expression system, two-electrode voltage clamp, NR1A/2A; assay type: cell-based
Sequence (Q00959 20-1464 limits assumed, other chains not shown): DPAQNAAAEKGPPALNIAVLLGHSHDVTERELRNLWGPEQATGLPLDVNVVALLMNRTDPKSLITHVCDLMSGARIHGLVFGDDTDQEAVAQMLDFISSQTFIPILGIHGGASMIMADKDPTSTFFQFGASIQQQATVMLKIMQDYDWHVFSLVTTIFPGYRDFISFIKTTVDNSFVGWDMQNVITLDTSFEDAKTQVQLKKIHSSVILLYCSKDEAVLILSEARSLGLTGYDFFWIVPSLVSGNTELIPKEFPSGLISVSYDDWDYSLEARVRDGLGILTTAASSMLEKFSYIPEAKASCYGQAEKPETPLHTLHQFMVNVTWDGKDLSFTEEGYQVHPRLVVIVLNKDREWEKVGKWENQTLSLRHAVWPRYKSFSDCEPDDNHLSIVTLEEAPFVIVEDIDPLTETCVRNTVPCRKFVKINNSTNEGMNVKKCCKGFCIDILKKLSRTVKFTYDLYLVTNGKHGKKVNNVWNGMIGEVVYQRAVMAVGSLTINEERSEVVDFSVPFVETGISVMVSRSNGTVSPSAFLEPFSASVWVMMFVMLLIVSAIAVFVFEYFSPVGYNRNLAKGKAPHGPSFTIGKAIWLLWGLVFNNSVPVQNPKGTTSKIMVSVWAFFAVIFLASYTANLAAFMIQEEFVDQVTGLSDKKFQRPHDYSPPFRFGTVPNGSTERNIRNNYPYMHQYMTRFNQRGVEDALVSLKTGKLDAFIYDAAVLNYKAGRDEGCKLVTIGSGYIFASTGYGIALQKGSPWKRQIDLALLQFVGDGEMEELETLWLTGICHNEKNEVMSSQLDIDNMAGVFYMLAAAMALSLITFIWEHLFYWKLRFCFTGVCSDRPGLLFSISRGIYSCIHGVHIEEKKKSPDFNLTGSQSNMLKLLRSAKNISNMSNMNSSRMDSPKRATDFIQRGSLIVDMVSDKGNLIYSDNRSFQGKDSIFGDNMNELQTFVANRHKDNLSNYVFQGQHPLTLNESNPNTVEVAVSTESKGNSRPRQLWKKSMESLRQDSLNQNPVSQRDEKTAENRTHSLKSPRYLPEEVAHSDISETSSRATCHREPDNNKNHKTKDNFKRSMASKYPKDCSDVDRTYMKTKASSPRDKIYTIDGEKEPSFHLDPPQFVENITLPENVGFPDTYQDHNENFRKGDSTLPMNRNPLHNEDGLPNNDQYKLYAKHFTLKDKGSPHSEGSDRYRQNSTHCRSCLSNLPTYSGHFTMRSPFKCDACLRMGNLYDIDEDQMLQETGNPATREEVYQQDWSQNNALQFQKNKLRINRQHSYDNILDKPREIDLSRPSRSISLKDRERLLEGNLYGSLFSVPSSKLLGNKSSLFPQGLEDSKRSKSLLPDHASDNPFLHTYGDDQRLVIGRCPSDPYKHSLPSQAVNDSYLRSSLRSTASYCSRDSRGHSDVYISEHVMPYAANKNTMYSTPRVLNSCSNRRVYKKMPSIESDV
Where a name gives a salt, the structure may show the parent alone.
Recorded IC50 values for a group of compounds are listed next.

compound: CC(O)CCN1CCC(Cc2ccccc2)CC1.Cl (stereo not drawn) [Ex. 100, hydrochloride]
IC50: > 300 µM
//
compound: C=CCN1CCCCC1Cc1ccccc1 (stereo not drawn) [Ex. 38(A), 1-Allyl-2-benzylpiperidine, hydrobromide]
IC50: 25 µM
//
compound: CC(C)(O)CCN1CCC(Cc2ccccc2)CC1.Cl [Ex. 102, hydrochloride]
IC50: > 300 µM

* * *

Reported melting point values for the following compounds.
Counter-ions that a name gives are not always drawn.

compound: O=C(CCCN1CCc2c([nH]c3ccccc23)C1)c1ccc(F)cc1
melting point: 188 to 190 °C

compound: Br.c1ccc(CC2CCCN(CCOc3ccccc3)C2)cc1 (stereo not shown)
melting point: 93 to 94 °C

compound: CC(O)CCN1CCC(Cc2ccc([N+](=O)[O-])cc2)CC1.Cl (stereo not shown)
melting point: 105 to 107 °C

compound: Br.c1ccc(CCN2CCCC(Cc3ccccc3)C2)cc1 (stereo not shown)
melting point: 137 to 142 °C

compound: c1ccc(OCCCN2CCc3ccccc3C2)cc1 (as salt: hydrochloride)
melting point: 194 to 195 °C

compound: COc1ccc(C(=O)C2CCN(CCCO)CC2)cc1 (as salt: hydrobromid)
melting point: 148 to 151 °C

compound: CC(CCO)N1CCC(Cc2ccccc2)CC1 (stereo not shown)
melting point: 74 to 76 °C

compound: O=C(c1ccccc1O)C1CCN(CCCO)CC1
melting point: 77 to 80 °C

compound: c1ccc(CCCN2CCc3c([nH]c4ccccc34)C2)cc1
melting point: 130 to 131 °C

compound: CC(O)CCN1CCC(Cc2ccc(F)cc2)CC1 (stereo not shown) (as salt: hydrochloride)
melting point: 99 to 103 °C

* * *

biological target: NR1A/2B NMDA receptor (Rattus norvegicus, UniProt P35439+Q00960); assay: Xenopus oocyte expression system, two-electrode voltage clamp, NR1A/2B; assay type: cell-based; settings: cloned NR1A/2B subunits expressed in Xenopus oocytes; inhibition of agonist-evoked membrane current; read-out: 1A/2B IC50
Sequence (Q00960 27-1482, other chains not shown): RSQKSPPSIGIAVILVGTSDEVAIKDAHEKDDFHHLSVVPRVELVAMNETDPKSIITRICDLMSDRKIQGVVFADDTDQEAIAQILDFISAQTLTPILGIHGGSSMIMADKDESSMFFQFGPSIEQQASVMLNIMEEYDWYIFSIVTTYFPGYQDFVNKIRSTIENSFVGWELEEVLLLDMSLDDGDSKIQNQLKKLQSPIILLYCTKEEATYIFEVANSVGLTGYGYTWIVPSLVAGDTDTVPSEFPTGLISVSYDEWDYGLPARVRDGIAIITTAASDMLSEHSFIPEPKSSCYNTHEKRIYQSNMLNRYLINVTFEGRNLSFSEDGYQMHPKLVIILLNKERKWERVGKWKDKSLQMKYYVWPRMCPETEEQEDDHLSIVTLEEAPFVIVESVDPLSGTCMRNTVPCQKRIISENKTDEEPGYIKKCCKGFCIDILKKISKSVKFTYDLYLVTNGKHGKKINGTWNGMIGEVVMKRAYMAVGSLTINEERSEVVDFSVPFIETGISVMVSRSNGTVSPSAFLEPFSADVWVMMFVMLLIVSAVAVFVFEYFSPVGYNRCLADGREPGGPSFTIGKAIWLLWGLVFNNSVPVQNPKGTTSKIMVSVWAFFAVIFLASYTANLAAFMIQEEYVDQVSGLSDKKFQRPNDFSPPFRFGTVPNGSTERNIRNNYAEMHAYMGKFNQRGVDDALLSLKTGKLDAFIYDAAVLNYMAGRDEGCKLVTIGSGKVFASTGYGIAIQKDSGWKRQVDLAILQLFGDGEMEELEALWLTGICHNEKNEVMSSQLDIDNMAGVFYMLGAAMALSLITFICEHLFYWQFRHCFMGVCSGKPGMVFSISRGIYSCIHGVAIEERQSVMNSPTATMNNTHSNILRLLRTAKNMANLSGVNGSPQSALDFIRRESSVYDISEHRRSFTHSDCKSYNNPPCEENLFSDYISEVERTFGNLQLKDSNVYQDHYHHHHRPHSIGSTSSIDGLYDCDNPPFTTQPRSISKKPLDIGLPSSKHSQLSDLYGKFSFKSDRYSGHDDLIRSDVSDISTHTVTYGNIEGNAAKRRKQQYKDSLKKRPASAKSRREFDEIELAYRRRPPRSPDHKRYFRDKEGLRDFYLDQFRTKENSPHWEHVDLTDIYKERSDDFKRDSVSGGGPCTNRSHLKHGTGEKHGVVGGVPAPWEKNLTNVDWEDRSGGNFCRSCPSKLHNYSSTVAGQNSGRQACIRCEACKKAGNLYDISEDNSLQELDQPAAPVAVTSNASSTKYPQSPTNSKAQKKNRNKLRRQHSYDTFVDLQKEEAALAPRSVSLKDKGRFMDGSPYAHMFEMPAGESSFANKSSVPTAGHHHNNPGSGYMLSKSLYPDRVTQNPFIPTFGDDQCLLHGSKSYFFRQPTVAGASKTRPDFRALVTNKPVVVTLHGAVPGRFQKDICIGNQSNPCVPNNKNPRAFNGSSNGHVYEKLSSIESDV
Counter-ions that a name gives are not always drawn.
Rule: IC50 below 10 µM gives rule met, anything at or above gives rule not met.

compound: OCCN1CCC(Cc2ccccc2)CC1 [Ex. 82, 4-Benzyl-1-(2-hydroxyethyl)piperidine]
classLabel: rule met
--
compound: OCCCN1CCC(O)(Cc2ccccc2)CC1
classLabel: rule met
--
compound: CC(O)CCN1CCC(Cc2ccc(F)cc2)CC1 (centres unmarked) [Ex. 91, hydrochloride]
classLabel: rule met
--
compound: C=CC[N+]1(CC=C)CCCCC1Cc1ccccc1 (centres unmarked) [Ex. 38(B), 2-benzyl-l,1-diallylpiperidinium iodide]
classLabel: rule not met
--
compound: Cl.Oc1ccc(OCCN2CCC(C[C@]34C[C@H]5C[C@H](C[C@H](C5)C3)C4)CC2)cc1
classLabel: rule not met
--
compound: O=C(c1ccccc1)C1CCN(CCOc2ccccc2)CC1
classLabel: rule not met
--
compound: O=C(CCCN1CCC(O)CC1)c1ccccc1 [Ex. 13, 4-(4-Hydroxypiperidinyl) butyrophenone]
classLabel: rule not met

* * *

In this section we review reported pIC50 values for a set of compounds.
biological target: NR1A/2C NMDA receptor (Rattus norvegicus, UniProt P35439+Q00961); experiment: Xenopus oocyte expression system, two-electrode voltage clamp, NR1A/2C; format: cell-based; conditions: cloned NR1A/2C subunits expressed in Xenopus oocytes; inhibition of agonist-evoked membrane current; read-out: 1A/2C IC50
Sequence (Q00961 20-1237, other chains not shown): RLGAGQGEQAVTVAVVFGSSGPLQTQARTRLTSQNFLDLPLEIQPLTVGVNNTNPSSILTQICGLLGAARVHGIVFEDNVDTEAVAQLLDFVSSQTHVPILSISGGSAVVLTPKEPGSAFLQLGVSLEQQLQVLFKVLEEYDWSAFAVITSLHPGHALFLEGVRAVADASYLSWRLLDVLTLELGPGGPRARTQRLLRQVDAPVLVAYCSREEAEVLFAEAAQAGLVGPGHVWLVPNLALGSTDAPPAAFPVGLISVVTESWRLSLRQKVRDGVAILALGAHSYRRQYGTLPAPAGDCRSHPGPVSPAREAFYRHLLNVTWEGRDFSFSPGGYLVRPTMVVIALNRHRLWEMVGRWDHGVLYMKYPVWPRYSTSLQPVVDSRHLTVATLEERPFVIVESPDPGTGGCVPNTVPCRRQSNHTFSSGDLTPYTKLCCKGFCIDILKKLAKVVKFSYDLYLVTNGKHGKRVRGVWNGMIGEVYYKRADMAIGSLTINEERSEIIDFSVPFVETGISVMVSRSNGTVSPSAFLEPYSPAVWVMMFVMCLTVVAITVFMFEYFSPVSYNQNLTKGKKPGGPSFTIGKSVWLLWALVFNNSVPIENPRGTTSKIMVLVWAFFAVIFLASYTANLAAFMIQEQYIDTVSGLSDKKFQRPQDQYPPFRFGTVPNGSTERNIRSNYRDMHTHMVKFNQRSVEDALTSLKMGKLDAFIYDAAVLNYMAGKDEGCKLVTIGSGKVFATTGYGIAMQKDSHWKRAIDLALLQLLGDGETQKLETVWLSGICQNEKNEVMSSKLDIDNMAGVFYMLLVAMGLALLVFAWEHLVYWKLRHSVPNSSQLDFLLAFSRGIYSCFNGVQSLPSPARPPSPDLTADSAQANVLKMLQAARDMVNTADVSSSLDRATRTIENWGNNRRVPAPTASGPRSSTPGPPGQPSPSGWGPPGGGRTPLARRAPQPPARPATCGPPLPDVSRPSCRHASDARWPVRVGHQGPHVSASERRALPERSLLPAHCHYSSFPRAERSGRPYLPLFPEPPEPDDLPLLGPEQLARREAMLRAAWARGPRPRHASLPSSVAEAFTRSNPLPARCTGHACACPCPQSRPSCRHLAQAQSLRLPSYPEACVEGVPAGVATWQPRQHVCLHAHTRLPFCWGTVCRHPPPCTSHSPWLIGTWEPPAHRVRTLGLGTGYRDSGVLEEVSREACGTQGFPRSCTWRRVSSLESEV
pIC50: −log10 of the molar value.

compound: C=CC[N+]1(CC=C)CCCCC1Cc1ccccc1 (stereo not drawn) [Ex. 38(B), 2-benzyl-l,1-diallylpiperidinium iodide]
pIC50: 4.30
--
compound: CCOC(=O)CCCN1CCCC(Cc2ccccc2)C1 (stereo not drawn) [Ex. 35]
pIC50: < 3.52
--
compound: C#CCCN1CCC(Cc2ccccc2)CC1 [Ex. 6, 4-benzyl-1-(3-Butynyl)piperidine]
pIC50: < 3.52

* * *

molecular target: NR1A/2A NMDA receptor (Rattus norvegicus, UniProt P35439+Q00959); assay: Xenopus oocyte expression system, two-electrode voltage clamp, NR1A/2A; format: cell-based; settings: cloned NR1A/2A subunits expressed in Xenopus oocytes; inhibition of agonist-evoked membrane current; read-out: 1A/2A IC50
Structures can show the parent of a compound that is named as a salt.

molecule: OCCCCN1CCC(Cc2ccccc2)CC1 [Ex. 86, hydrobromide]
systemTested: NR1A/2A NMDA receptor (Rattus norvegicus, UniProt P35439+Q00959)
relationOperator: >
IC50 (µM): 300
--
molecule: OCCCN1CCC(Cc2ccc(Cl)cc2)CC1 [Ex. 89, hydrobromide]
systemTested: NR1A/2A NMDA receptor (Rattus norvegicus, UniProt P35439+Q00959)
relationOperator: =
IC50 (µM): 150
--
molecule: NCCCN1CCC(Cc2ccccc2)CC1
systemTested: NR1A/2A NMDA receptor (Rattus norvegicus, UniProt P35439+Q00959)
relationOperator: =
IC50 (µM): 270
--
molecule: c1ccc(OCCCN2CCc3c([nH]c4ccccc34)C2)cc1
systemTested: NR1A/2A NMDA receptor (Rattus norvegicus, UniProt P35439+Q00959)
relationOperator: =
IC50 (µM): 60
--
molecule: Cc1ccc(CC2CCN(CCC(C)O)CC2)cc1.Cl (stereo not drawn) [Ex. 104, hydrochloride]
systemTested: NR1A/2A NMDA receptor (Rattus norvegicus, UniProt P35439+Q00959)
relationOperator: =
IC50 (µM): 110
--
molecule: c1ccc(OCCCN2CCc3ccccc3C2)cc1
systemTested: NR1A/2A NMDA receptor (Rattus norvegicus, UniProt P35439+Q00959)
relationOperator: =
IC50 (µM): 75
--
molecule: CC(CCO)N1CCC(Cc2ccccc2)CC1 (stereo not drawn)
systemTested: NR1A/2A NMDA receptor (Rattus norvegicus, UniProt P35439+Q00959)
relationOperator: =
IC50 (µM): 270
--
molecule: C#CCCN1CCC(O)(c2ccc(Cl)cc2)CC1
systemTested: NR1A/2A NMDA receptor (Rattus norvegicus, UniProt P35439+Q00959)
relationOperator: >
IC50 (µM): 300
--
molecule: Oc1ccc(CCNC2=NCC(Cc3ccccc3)CN2)cc1 (stereo not drawn)
systemTested: NR1A/2A NMDA receptor (Rattus norvegicus, UniProt P35439+Q00959)
relationOperator: =
IC50 (µM): 3.5
--
molecule: c1ccc(CCCN2CCc3c([nH]c4ccccc34)C2)cc1
systemTested: NR1A/2A NMDA receptor (Rattus norvegicus, UniProt P35439+Q00959)
relationOperator: =
IC50 (µM): 30
--
molecule: OCCCN1CCC(O)(Cc2ccccc2)CC1
systemTested: NR1A/2A NMDA receptor (Rattus norvegicus, UniProt P35439+Q00959)
relationOperator: >
IC50 (µM): 300
--
molecule: OCCCN1CCC(Cc2ccc(F)cc2)CC1 [Ex. 90, hydrobromide]
systemTested: NR1A/2A NMDA receptor (Rattus norvegicus, UniProt P35439+Q00959)
relationOperator: >
IC50 (µM): 300
--
molecule: O=C(c1cccc(F)c1)C1CCN(CCCCc2ccccc2)CC1
systemTested: NR1A/2A NMDA receptor (Rattus norvegicus, UniProt P35439+Q00959)
relationOperator: >
IC50 (µM): 300
--
molecule: Fc1cccc(C[P+](c2ccccc2)(c2ccccc2)c2ccccc2)c1
systemTested: NR1A/2A NMDA receptor (Rattus norvegicus, UniProt P35439+Q00959)
relationOperator: >
IC50 (µM): 300
--
molecule: OCC1CC2CC(Cc3ccccc3)CCN2C1 (stereo not drawn)
systemTested: NR1A/2A NMDA receptor (Rattus norvegicus, UniProt P35439+Q00959)
relationOperator: >
IC50 (µM): 300
--
molecule: CC(O)CCN1CCC(Cc2ccc([N+](=O)[O-])cc2)CC1.Cl (stereo not drawn) [Ex. 101, hydrochloride]
systemTested: NR1A/2A NMDA receptor (Rattus norvegicus, UniProt P35439+Q00959)
relationOperator: =
IC50 (µM): 260
--
molecule: C[C@@H](CO)CN1CCC(Cc2ccc(F)cc2)CC1 [Ex. 92, hydrochloride]
systemTested: NR1A/2A NMDA receptor (Rattus norvegicus, UniProt P35439+Q00959)
relationOperator: >
IC50 (µM): 300
--
molecule: O=c1[nH]c2ccc(OCCN3CCc4ccccc4C3)cc2[nH]1
systemTested: NR1A/2A NMDA receptor (Rattus norvegicus, UniProt P35439+Q00959)
relationOperator: =
IC50 (µM): 190
--
molecule: OC1(Cc2ccccc2)CCN(CCCc2ccccc2)CC1
systemTested: NR1A/2A NMDA receptor (Rattus norvegicus, UniProt P35439+Q00959)
relationOperator: =
IC50 (µM): 20
--
molecule: COC(=O)CCCCN1CCCC(Cc2ccccc2)C1 (stereo not drawn)
systemTested: NR1A/2A NMDA receptor (Rattus norvegicus, UniProt P35439+Q00959)
relationOperator: >
IC50 (µM): 300
--
molecule: OCCN1CCC(Cc2ccccc2)CC1 [Ex. 82, 4-Benzyl-1-(2-hydroxyethyl)piperidine]
systemTested: NR1A/2A NMDA receptor (Rattus norvegicus, UniProt P35439+Q00959)
relationOperator: =
IC50 (µM): 290

Provenance of the data: patent US6534522B2
